Data provenance: ChEMBL document CHEMBL1132937

biological target: Neutrophil collagenase (Homo sapiens)
Sequence (P22894 whole entry): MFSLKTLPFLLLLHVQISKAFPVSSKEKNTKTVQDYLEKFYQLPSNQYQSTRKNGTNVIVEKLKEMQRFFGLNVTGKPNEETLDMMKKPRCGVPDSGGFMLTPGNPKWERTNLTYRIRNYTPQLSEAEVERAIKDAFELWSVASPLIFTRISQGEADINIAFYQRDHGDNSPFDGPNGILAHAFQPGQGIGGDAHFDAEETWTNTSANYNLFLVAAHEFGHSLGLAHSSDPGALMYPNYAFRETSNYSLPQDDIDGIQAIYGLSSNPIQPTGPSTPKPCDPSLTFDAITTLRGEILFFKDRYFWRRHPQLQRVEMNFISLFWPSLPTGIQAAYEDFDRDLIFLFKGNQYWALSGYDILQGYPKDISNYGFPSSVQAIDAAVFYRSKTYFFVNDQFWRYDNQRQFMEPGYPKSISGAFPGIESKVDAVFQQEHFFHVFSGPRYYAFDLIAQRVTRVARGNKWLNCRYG
pKi: −log10 of the molar value.
Lab note: compare pKi against 8. Equal or greater, write met. Smaller, write not met.

These recorded examples may help you get a feel for the data.
>  <smilesNotation>
Cc1ccccc1S(=O)(=O)NC(=O)Nc1cccc(S(=O)(=O)N(CC(=O)NO)Cc2ccc([N+](=O)[O-])cc2)c1

>  <classLabel>
met

$$$$
>  <smilesNotation>
O=C(CN(Cc1ccc([N+](=O)[O-])cc1)S(=O)(=O)c1cccc(NC(=O)NS(=O)(=O)c2ccc(F)cc2)c1)NO

>  <classLabel>
met

$$$$
>  <smilesNotation>
Cc1cc(C)c(S(=O)(=O)N(CC(=O)NO)Cc2ccc([N+](=O)[O-])cc2)c(C)c1

>  <classLabel>
not met

$$$$
>  <smilesNotation>
O=C(CN(Cc1ccc([N+](=O)[O-])cc1)S(=O)(=O)c1ccc(NC(=O)NS(=O)(=O)c2ccccc2)cc1)NO

>  <classLabel>
met

$$$$
>  <smilesNotation>
CN(C)S(=O)(=O)N(CC(=O)NO)Cc1ccc([N+](=O)[O-])cc1

>  <classLabel>
not met

$$$$

Input line: Quick check: does `Cc1ccc(S(=O)(=O)NC(=O)Nc2ccc(S(=O)(=O)N(CC(=O)O)Cc3ccc([N+](=O)[O-])cc3)cc2)cc1` have pKi greater than or equal to 8?
Output line: not met
